# reported growth; entries follow
- System: OVCAR-8 ovarian
- method summary: NCI-60 one-dose screen, 48 h (100 = growth as untreated, 0 = no growth, -100 = all killed)
- protocol conditions: 10 µM unless noted
Compounds without any hit were thinned out: in the full panel of roughly 83,000, 20% have a hit. Activity calls are given as the source filed them. The calls were made as follows: active = growth percent below 10; inactive = the rest.

O=C1c2ccccc2C(=O)c2c1oc1oc3c(c(=O)c21)c(=O)n(-c1ccccc1)c1ccccc31    48.2% (inactive)

Considering COc1ccccc1CNCCCN1C(=O)c2ccc3c4c(ccc(c24)C1=O)C(=O)N(CCCNCCCCNCCCCN)C3=O , its growth with OVCAR-8 ovarian was recorded as -18.2% (active)

Considering Nc1c(C(=O)Nc2ccccc2)sc2nc3c(cc12)CCC3 , its growth with OVCAR-8 ovarian was recorded as 88.2% (inactive)

Considering Nc1nc(-c2cc3ccccc3o2)cc(=O)c(=O)[nH]1 , its growth with OVCAR-8 ovarian was recorded as 107% (inactive)

Considering COc1cc(CNC(=O)CSc2nc3ccccc3c(=O)n2Cc2cc(OC)c(OC)c(OC)c2)cc(OC)c1OC , its growth with OVCAR-8 ovarian was recorded as 96.4% (inactive)

====

- System: OVCAR-5 ovarian
- method summary: NCI-60 one-dose screen, 48 h
- protocol conditions: 10 µM unless noted
About 83,000 compounds went through this panel and 20% of them were active in at least one assay; those are over-represented in the sample as a whole. Activity calls are given as the source filed them. How the source made its calls: active means growth percent below 10; inactive means the rest.
One label from this list, please: True for active, False for inactive

Answered examples (3):
CCOC(=O)C(Cc1ccccc1)n1c(O)c(C=Nc2ccc(C(=O)OCCN(CC)CC)cc2)sc1=O (centres undefined)    False
Nc1cc2c(cc1N)-c1cc(N)c(N)cc1C2    False
CC[C@H](C)[C@@H]1NC(=O)[C@H]([C@@H](C)O)NC(=O)C(Cc2ccccc2)NC(=O)[C@@H]2CCCN2C(=O)C(C(C)C)NC(=O)C(Cc2ccccc2)NC(=O)CNC(=O)[C@@H]2CCCN2C1=O (some centres undefined)    False

[ask] Field: outcome | Entry: Cc1cccc(-n2c(C)nc3ccc(NC(=O)NCCCl)cc3c2=O)c1
[reply] False

[ask] Field: outcome | Entry: NC(=O)c1ccc2c(c1)OCO2
[reply] False

[ask] Field: outcome | Entry: COc1cc2oc(-c3cccc(NC(=O)Nc4ccc5c(c4)OCO5)c3)cc(=O)c2c(OC)c1OC
[reply] False

[ask] Field: outcome | Entry: NC(=O)c1cccc(N2Cc3ccccc3OC3=C2C(=O)c2c(O)ccc(O)c2C3=O)c1
[reply] True

[ask] Field: outcome | Entry: COc1cc2nc(SCc3cc(OC)c(OC)c(OC)c3)n(Cc3ccccc3)c(=O)c2cc1OC
[reply] False

[ask] Field: outcome | Entry: CC(=O)Nc1ccc2c(c1)/C(=C\C=C/c1ccc([N+](C)(C)C)cc1)c1ccccc1-2
[reply] False

====

- Tested on: UO-31 renal
- method summary: NCI-60 one-dose screen, 48 h
- protocol conditions: 10 µM unless noted
- Method: Growth inhibition of the UO-31 human tumor cell line is measured as a screen for anti-cancer activity. Cells are grown in 96 well plates and exposed to the test compound for 48 hours. Compounds are tested at a single concentration, which is 10^-5 M for most compounds. The reported endpoint is percent growth (GI% or GIPRCNT), where numbers from 0 - 100% represent growth inhibition, and numbers from -100% - 0 represent cell death. For example, a value of 40 represents 60% growth inhibition. […]
The panel holds about 83,000 compounds, 20% with a hit somewhere; the sample as a whole holds those more often. Calls of active or inactive are those of the source. How the source made its calls: active means growth percent below 10; inactive means the rest.
One label from this list, please: Y = active, N = inactive

O=C(O)c1cccc([N+](=O)[O-])c1/C=C/c1ccccc1    N
O=C(OCCCCOC(=O)n1cnc2ccccc21)n1cnc2ccccc21    N
O=C(NCCc1c[nH]c2ccccc12)C1Cc2ccccc2CN1C(=O)c1ccco1 (stereo not given)    N
Cc1ccc2c(c1)ncn2-c1ncnc2c1CC(C)c1ccccc1N2C (stereo not given)    N
CN1CCN(CCCOc2ccc3nc(Nc4ccc(C(F)(F)F)c(Cl)c4)ccc3c2)CC1    Y
Nc1cc2c(cc1N)-c1cc(N)c(N)cc1C2    N
N#Cc1c(NC(=O)c2ccc([N+](=O)[O-])o2)[n+]([O-])c2cc(F)c(F)cc2[n+]1[O-]    N
O=S(=O)(NCCCNc1nccc(-c2c(-c3ccc(O)cc3)nc3sccn23)n1)c1ccc(F)cc1    Y
CCCCCC(=O)OCc1ccccc1    N

Field: next molecule
[ask] Field: outcome | Entry: COc1cc(CNC(=O)CCSc2nc3ccccc3c(=O)n2Cc2cc(OC)c(OC)c(OC)c2)cc(OC)c1OC
[reply] N

====

- Test system: HOP-92 NSCLC
- method summary: NCI-60 one-dose screen, 48 h (100 = growth as untreated, 0 = no growth, -100 = all killed)
- protocol conditions: 10 µM unless noted
About 83,000 compounds went through this panel and 20% of them were active in at least one assay; those are over-represented in the sample as a whole.
# reported growth; entries follow
All answers are understood in %, so give the number only.

Take a look at these entries with their results.
COc1cc(-c2csc(NC(=O)Nc3ccc(Cl)cc3Cl)n2)cc(OC)c1OC    44
COc1cc(/C=C2\CCCC3=C2NC(C)=NC3c2cc(OC)c(OC)c(OC)c2)cc(OC)c1OC (stereo not given)    70.7
COc1cccc(/C=C2\SC(N3CCN(c4ccccn4)CC3)=NC2=O)c1    92.7
COc1cc(Cn2c(-c3nonc3N)nc3ccccc32)ccc1C    39.8
COc1cc2c(cc1OC)C1(C)N(CC2)C(=O)OC1(C)C (stereo not given)    101

Entry under test: COc1ccc(C2NC3=C(CCCC3)C(C#N)(C#N)C2(C#N)C#N)cc1 (stereo not given) . Its growth was 103

Entry under test: O=C(CN1CCOCC1)Nc1ccc(-c2nc3ccccc3s2)cc1 . Its growth was 83.3

Entry under test: O=C(CCCn1c2c(sc3ccccc32)c(=O)n2nnc(-c3ccccc3)c12)NCCc1cnc[nH]1 . Its growth was -75.7

Entry under test: COc1ccc(C(=O)N2CCN(C(=O)c3cc(OC)c(OC)c(OC)c3)CC2)cc1OCCCCOc1cc2c(cc1OC)C(=O)N1CCC[C@H]1C=N2 . Its growth was 70.9

Entry under test: CCCCCCCC/C=C\CCCCCCCCOc1ccccc1CCOP(=O)(O)OCC[N+](C)(C)C . Its growth was 30.3

====

- Test system: LOX IMVI melanoma
- method summary: NCI-60 one-dose screen, 48 h
- protocol conditions: 10 µM unless noted
About 83,000 compounds went through this panel and 20% of them were active in at least one assay; those are over-represented in the sample as a whole. Active and inactive are the calls of the source. Rule for the calls: active = growth percent below 10; inactive = the rest.
One label from this list, please: 1 = active, -1 = inactive

CCN(CC)CCCC(C)N=c1cc(Nc2cc(=NC(C)CCCN(CC)CC)c3cc(OC)ccc3o2)oc2ccc(OC)cc12 (centres undefined)    1
Clc1nc(Cl)c2ncn(C/C=C/Cn3cnc4c(Cl)nc(Cl)nc43)c2n1    -1
CC(=O)OC[Si](C)(C)c1ccccc1    -1

[ask] Field: outcome | Entry: CCOc1ccc(/C=C/C=N/NC(N)=S)cc1
[reply] -1

[ask] Field: outcome | Entry: CC(C)(C)OC(=O)N[C@@H](Cc1ccccc1)C(=O)N(Cc1ccccc1)C1(C(=O)NCc2ccccc2)CCN(Cc2ccccc2)CC1
[reply] -1

[ask] Field: outcome | Entry: O=c1oc2cc(OS(=O)(=O)c3ccc(F)cc3)ccc2c2c1CCCCC2
[reply] -1

[ask] Field: outcome | Entry: CCC#CC[C@H]1C/C=C2/C(=O)C=C[C@@H]2C/C=C\CCCC(=O)O1
[reply] 1

[ask] Field: outcome | Entry: COc1ccc(/C=C2\CCCC3=C2NC(C)=NC3c2ccc(OC)c(OC)c2)cc1OC (centres undefined)
[reply] 1

[ask] Field: outcome | Entry: O=C(Nc1ccc(OCc2nnc(-c3ccc(Cl)cc3)o2)c(F)c1)Nc1ccc(Cl)c(Cl)c1
[reply] -1

[ask] Field: outcome | Entry: CCOC(=O)C1=C(CSC(=S)N(C2CCCCC2)C2CCCCC2)N(C)C(=O)NC1c1ccccc1 (centres undefined)
[reply] -1

====

- Tested on: MCF7 breast
- method summary: NCI-60 one-dose screen, 48 h (100 = growth as untreated, 0 = no growth, -100 = all killed)
- protocol conditions: 10 µM unless noted
This is part of a sample that, as a whole, favours compounds with a hit. Of some 83,000 tested, about 20% had one in any assay.
observable: growth (%)
All answers are understood in %, so give the number only.

CC(=O)OC[Si](C)(C)c1ccccc1    107
COc1ccc(/C=C/c2nc(N3CCOCC3)c3nc(Cl)c(Cl)cc3n2)cc1OC    111

Entry under test: CCN(CC)CCC(=O)c1cccc2ccccc12 . Its growth was 63.9

Entry under test: CCCCNc1nnc(-c2cc(-c3cc4ccccc4o3)nn2-c2ccccc2)o1 . Its growth was 73.8

Source: PubChem BioAssay (NCI)
